Below, each of the molecules is paired with its reported GI50 value.
Test system: HeLa
Assay: Growth inhibition of human HeLa cells after 72 hrs by trypan blue assay
Assay type: functional
Respond numerically; units are µM and should not be typed.

>>> df
                                chem_smiles  observed
0  Cc1cc(=O)n2c(C)cc3c(OCCCCNCCN(C)C)ccc1c32      19.7

Now look at this entry.
Prompt line: Query (molecule): Cc1c2ccncc2c(C)c2c1[nH]c1ccccc12 ; field requested: GI50
Response line: 0.3

###

Target: DNA topoisomerase 2-alpha (Homo sapiens)
Test: Inhibition of human recombinant topoisomerase 2-alpha-mediated pBR322 DNA relaxation at 50 uM after 60 mins by agarose gel electrophoresis
Calls of active or inactive are those of the source. The calls are words filed in the database; no cut-off is given here.
Hi there, use one of these labels in your reply, thanks! active, inactive

In [3]: df
Out[3]:
                                chem_smiles     class
0   Cc1cc(=O)n2c(C)cc3c(OCCNCCN(C)C)ccc1c32    active
1  Cc1cc(=O)n2c(C)cc3c(OCCCNCCN(C)C)ccc1c32  inactive
2  Cc1cc(=O)n2c(C)cc3c(OCCCCNCCN(C)C)ccc1c32    active

Prompt line: Recorded call for Cc1cc(=O)n2c(C)cc3c(OCCCCN(C)C)ccc1c32 ?
Response line: inactive

###

# log10 of GI50 per record follows
Tested on: A-431
Assay: Growth inhibition of human A431 cells after 72 hrs by trypan blue assay
Type: functional
Conditions: A-431, 72 h
Please note: log10 values; quantity GI50; unit µM.

Some solved cases for reference:
>>> df
                                   compound  observed
0   Cc1cc(=O)n2c(C)cc3c(OCCNCCN(C)C)ccc1c32      0.88
1  Cc1c2ccncc2c(C)c2c1[nH]c1ccccc12 [ELLIPTECINE]      0.51
2    Cc1cc(=O)n2c(C)cc3c(OCCCCN(C)C)ccc1c32      1.62

Prompt line: Find the recorded log10 of GI50 belonging to Cc1cc(=O)n2c(C)cc3c(OCCCCNCCN(C)C)ccc1c32 and report it.
Response line: 1.13

Prompt line: # input compound: Cc1cc(=O)n2c(C)cc3c(OCCCNCCN(C)C)ccc1c32 ; wanted: its log10 of GI50
Response line: 1.16
